Measured values drawn from ChEMBL document CHEMBL1138297 for this set.

Tested on: Yersinia pseudotuberculosis
Test: Effect on T3S in Yersinia pseudotuberculosis 3 pIB29 assessed as inhibition of light emission at 1 uM by luciferase reporter gene assay
Measured endpoint: inhibition (%)
Express it in %; write the number only.

Reference set (5 entries):
- Chemical smiles: "O=C(Nc1ccc(SC(F)(F)F)cc1)c1c(O)c(Cl)cc(Cl)c1Cl"
  Uom: "%"
  inhibition: 4
- Chemical smiles: "Cc1cc(NC(=O)c2cc(Cl)ccc2O)ccc1Cl"
  Uom: "%"
  inhibition: 50
- Chemical smiles: "O=C(Nc1ccc(SC(F)(F)F)cc1)c1cc(I)ccc1O"
  Uom: "%"
  inhibition: 53
- Chemical smiles: "O=C(Nc1ccc(SC(F)(F)F)cc1)c1cccc(Cl)c1O"
  Uom: "%"
  inhibition: 3
- Chemical smiles: "CC(=O)Oc1c(Cl)cccc1C(=O)Nc1ccc(SC(F)(F)F)cc1"
  Uom: "%"
  inhibition: 6

Briefly, inhibition measured for `O=C(Nc1ccc(Cl)cc1)c1cc(I)cc(I)c1O` : 47

Briefly, inhibition measured for `CC(=O)Oc1ccc(I)cc1C(=O)Nc1ccc(Cl)cc1` : 73

Briefly, inhibition measured for `O=C(Nc1ccc(SC(F)(F)F)cc1)c1cc(I)cc(I)c1O` : 17

Briefly, inhibition measured for `CC(=O)Oc1c(I)cc(I)cc1C(=O)Nc1ccc(Cl)cc1` : 7

---

Quick reference: inhibition of the listed items.
Tested on: Yersinia pseudotuberculosis
Test: Effect on T3S in Yersinia pseudotuberculosis 3 pIB29 assessed as inhibition of light emission at 20 uM by luciferase reporter gene assay
Quick note: unit goes after the number.

Reference set (5 entries):
- Chemical smiles: "Cc1cc(NC(=O)c2cc(Cl)ccc2O)ccc1Cl"
  Assayed target: "Yersinia pseudotuberculosis"
  inhibition: "85%"
- Chemical smiles: "CC(=O)Oc1c(Cl)cc(Cl)c(Cl)c1C(=O)Nc1ccc(C(C)(C)C)cc1"
  Assayed target: "Yersinia pseudotuberculosis"
  inhibition: "7%"
- Chemical smiles: "CC(C)(C)c1ccc(NC(=O)c2cc(F)ccc2O)cc1"
  Assayed target: "Yersinia pseudotuberculosis"
  inhibition: "12%"
- Chemical smiles: "CC(=O)Oc1c(I)cc(I)cc1C(=O)Nc1ccc(Cl)cc1"
  Assayed target: "Yersinia pseudotuberculosis"
  inhibition: "98%"
- Chemical smiles: "O=C(Nc1cc(Cl)ccc1F)c1cc(I)cc(I)c1O"
  Assayed target: "Yersinia pseudotuberculosis"
  inhibition: "92%"

Briefly, inhibition measured for `O=C(Nc1ccc(SC(F)(F)F)cc1)c1cc(I)cc(I)c1O` : 100%

Briefly, inhibition measured for `CC(=O)Oc1c(Cl)cc(Cl)c(Cl)c1C(=O)Nc1ccc(F)cc1` : 23%

Briefly, inhibition measured for `CC(=O)Oc1c(Br)cc(Br)cc1C(=O)Nc1ccccc1F` : 15%

Briefly, inhibition measured for `CC(=O)Oc1c(Cl)cccc1C(=O)Nc1ccc(SC(F)(F)F)cc1` : 70%

Briefly, inhibition measured for `COc1cc(Cl)c(C)cc1NC(=O)c1cccc(C(C)C)c1OC(C)=O` : 8%

---

Quick reference: inhibition of the listed items.
Tested on: Yersinia pseudotuberculosis
Assay: Effect on T3S in Yersinia pseudotuberculosis 3 pIB29 assessed as inhibition of light emission at 2 uM by luciferase reporter gene assay
Express it in %; write the number only.

Reference set (5 entries):
- Chemical smiles: "CC(=O)Oc1c(Cl)cc(Cl)c(Cl)c1C(=O)Nc1ccc(SC(F)(F)F)cc1"
  Uom: "%"
  Measured: 42
- Chemical smiles: "CC(=O)Oc1c(I)cc(I)cc1C(=O)Nc1ccc(Br)cc1"
  Uom: "%"
  Measured: 7
- Chemical smiles: "CC(=O)Oc1ccc(Cl)cc1C(=O)Nc1ccc(Cl)c(C)c1"
  Uom: "%"
  Measured: 62
- Chemical smiles: "O=C(Nc1cc(Cl)ccc1F)c1cc(I)cc(I)c1O"
  Uom: "%"
  Measured: 6
- Chemical smiles: "O=C(Nc1ccc(Br)cc1)c1cc(I)ccc1O"
  Uom: "%"
  Measured: 68

Measured inhibition (Yersinia pseudotuberculosis), entry `CC(=O)Oc1c(I)cc(I)cc1C(=O)Nc1ccc(F)cc1` : 15

Measured inhibition (Yersinia pseudotuberculosis), entry `CC(=O)Oc1ccc(I)cc1C(=O)Nc1ccc(Br)cc1` : 94

Measured inhibition (Yersinia pseudotuberculosis), entry `CC(=O)Oc1ccc(I)cc1C(=O)Nc1ccc(SC(F)(F)F)cc1` : 80

Measured inhibition (Yersinia pseudotuberculosis), entry `Cc1cc(NC(=O)c2cc(Cl)ccc2O)ccc1Cl` : 62

Measured inhibition (Yersinia pseudotuberculosis), entry `CC(=O)Oc1c(I)cc(I)cc1C(=O)Nc1ccc(Cl)cc1` : 17

Measured inhibition (Yersinia pseudotuberculosis), entry `CC(=O)Oc1ccc(I)cc1C(=O)Nc1ccc(Cl)cc1` : 92

Measured inhibition (Yersinia pseudotuberculosis), entry `O=C(Nc1ccc(Cl)cc1)c1cc(I)cc(I)c1O` : 60

Measured inhibition (Yersinia pseudotuberculosis), entry `CC(=O)Oc1c(Cl)cccc1C(=O)Nc1ccc(Br)cc1` : 9

Measured inhibition (Yersinia pseudotuberculosis), entry `O=C(Nc1ccc(SC(F)(F)F)cc1)c1cccc(Cl)c1O` : 13

---

Test system: Yersinia pseudotuberculosis
Test: Effect on T3S in Yersinia pseudotuberculosis 3 pIB29 assessed as inhibition of light emission at 50 uM by luciferase reporter gene assay
Measured endpoint: inhibition

Reference set (6 entries):
- Chemical smiles: "O=C(Nc1ccc(F)cc1)c1cc(I)cc(I)c1O"
  Assayed target: "Yersinia pseudotuberculosis"
  Measured endpoint: "inhibition"
  Measured: "99%"
- Chemical smiles: "CC(=O)Oc1ccc(Br)cc1C(=O)Nc1cc(C(C)(C)C)cc(C(C)(C)C)c1"
  Assayed target: "Yersinia pseudotuberculosis"
  Measured endpoint: "inhibition"
  Measured: "15%"
- Chemical smiles: "CC(=O)Oc1cc(C)ccc1C(=O)Nc1ccccc1F"
  Assayed target: "Yersinia pseudotuberculosis"
  Measured endpoint: "inhibition"
  Measured: "53%"
- Chemical smiles: "O=C(Nc1ccc(Cl)cc1)c1cc(I)cc(I)c1O"
  Assayed target: "Yersinia pseudotuberculosis"
  Measured endpoint: "inhibition"
  Measured: "100%"
- Chemical smiles: "CC(=O)Oc1c(Cl)cc(Cl)c(Cl)c1C(=O)Nc1ccc(F)cc1"
  Assayed target: "Yersinia pseudotuberculosis"
  Measured endpoint: "inhibition"
  Measured: "32%"
- Chemical smiles: "O=C(Nc1ccc(SC(F)(F)F)cc1)c1cc(I)ccc1O"
  Assayed target: "Yersinia pseudotuberculosis"
  Measured endpoint: "inhibition"
  Measured: "49%"

Briefly, inhibition measured for `CCCCCCCc1ccc(NC(=O)c2cc(I)cc(I)c2O)cc1` : 22%

Briefly, inhibition measured for `CC(=O)Oc1c(Cl)cc(Cl)c(Cl)c1C(=O)Nc1cc(C)cc(C)c1` : 5%

Briefly, inhibition measured for `CC(=O)Oc1c(I)cc(I)cc1C(=O)Nc1ccc(C(C)(C)C)cc1` : 17%

Briefly, inhibition measured for `O=C(Nc1ccccc1F)c1cc(Br)cc(Br)c1O` : 64%

Briefly, inhibition measured for `Cc1cc(NC(=O)c2cc(Cl)ccc2O)ccc1Cl` : 56%

Briefly, inhibition measured for `CC(=O)Oc1c(Cl)cccc1C(=O)Nc1ccc(SC(F)(F)F)cc1` : 98%

---

Tested on: Yersinia pseudotuberculosis
Assay: Effect on T3S in Yersinia pseudotuberculosis 3 pIB29 assessed as inhibition of light emission at 100 uM by luciferase reporter gene assay
Classify by measured inhibition: true if it is equal to or exceeds 80%, false if it is smaller.

Data request: Please indicate if the recorded inhibition for `O=C(Nc1ccccc1)c1c(O)c(Cl)cc(Cl)c1Cl` meets or exceeds 80%.
Data returned: false

Data request: Please indicate if the recorded inhibition for `CC(=O)Oc1ccc(I)cc1C(=O)Nc1ccc(SC(F)(F)F)cc1` meets or exceeds 80%.
Data returned: true

Data request: Please indicate if the recorded inhibition for `CC(=O)Oc1c(I)cc(I)cc1C(=O)Nc1ccc(SC(F)(F)F)cc1` meets or exceeds 80%.
Data returned: false

Data request: Please indicate if the recorded inhibition for `CC(=O)Oc1c(I)cc(I)cc1C(=O)Nc1ccc(Cl)cc1` meets or exceeds 80%.
Data returned: true

---

System: Yersinia pseudotuberculosis
Assay: Effect on T3S in Yersinia pseudotuberculosis 3 pIB29 assessed as inhibition of light emission at 20 uM by luciferase reporter gene assay
Measured endpoint: inhibition (%)
Express it in %; write the number only.

- Chemical smiles: "O=C(Nc1ccc(Br)cc1)c1cc(I)cc(I)c1O"
  Measured: 100
- Chemical smiles: "CC(=O)Oc1ccc(I)cc1C(=O)Nc1ccc(Cl)cc1"
  Measured: 100
- Chemical smiles: "CC(C)(C)c1cc(NC(=O)c2cc(Br)ccc2O)cc(C(C)(C)C)c1"
  Measured: 9

Briefly, inhibition measured for `CC(=O)Oc1ccc(I)cc1C(=O)Nc1ccc(Br)cc1` : 100

Briefly, inhibition measured for `O=C(Nc1ccc(Br)cc1)c1cc(I)ccc1O` : 67

Briefly, inhibition measured for `O=C(Nc1ccccc1)c1c(O)c(Cl)cc(Cl)c1Cl` : 21

Briefly, inhibition measured for `O=C(Nc1ccc(F)cc1)c1c(O)c(Cl)cc(Cl)c1Cl` : 19

Briefly, inhibition measured for `O=C(Nc1ccc(F)cc1)c1cc(I)cc(I)c1O` : 78

Briefly, inhibition measured for `O=C(Nc1ccc(Br)cc1)c1cccc(Cl)c1O` : 62
